Attribution: paper PMC8842605

Tested on: maximal electro shock-induced seizure
Assay: Maximal electro shock (MES) test
Assay type: in vivo
Conditions: Mus musculus, 0.5 h; mice, 30 min after administration; 60 Hz, 50 mA, 0.2 s; HLTE; read-out: ED50 (95% CI), MES test
ED50 reference
propertyMeasured: ED50 (mg/kg)

- compound: "Cc1ccc(C(=O)Nc2ccccc2-c2nnc(-c3ccccc3)o2)cc1"
  readoutNumber: 92.5
- compound: "CN1C(=O)CN=C(c2ccccc2)c2cc(Cl)ccc21 [Diazepam, reference compound]"
  readoutNumber: 1.32
- compound: "O=C(Nc1ccccc1-c1nnc(-c2ccccc2)o1)c1ccccc1"
  readoutNumber: 235
- compound: "O=C(O)CCC(=O)Nc1ccccc1-c1nnc(-c2ccccc2)o1"
  readoutNumber: 40.8
- compound: "O=C(O)c1ccccc1C(=O)Nc1ccccc1-c1nnc(-c2ccccc2)o1"
  readoutNumber: 26.7
- compound: "O=C(Nc1ccccc1-c1nnc(-c2ccccc2)o1)c1ccc(Cl)cc1"
  readoutNumber: 163

====

Measured pKi, listed per entry for reference.
Target: benzodiazepine receptor
Test: Radioligand competition binding with [3H]-flumazenil
Conditions: rat brain membrane, Cheng-Prussof equation
Experimental: Temporarily, the brain tissue of Male Sprague-Dawley rats (200-250 g weight) were used as the source of the benzodiazepine receptors. […] The Bradford method using bovine serum albumin as a standard, was applied for quantification of protein in the separated membrane. […] NSB was determined in parallel assays performed in the presence of 100 μM diazepam. […]
pKi: −log10 of the molar value.
propertyMeasured: pKi

- compound: "CCC(=O)Nc1ccccc1-c1nnc(-c2ccccc2)o1"
  propertyMeasured: "pKi"
  readoutNumber: 8.83
- compound: "COc1ccc(C(=O)Nc2ccccc2-c2nnc(-c3ccccc3)o2)cc1"
  propertyMeasured: "pKi"
  readoutNumber: 8.75
- compound: "Cc1ccc(C(=O)Nc2ccccc2-c2nnc(-c3ccccc3)o2)cc1"
  propertyMeasured: "pKi"
  readoutNumber: 8.61
- compound: "O=C(Nc1ccccc1-c1nnc(-c2ccccc2)o1)c1ccccc1"
  propertyMeasured: "pKi"
  readoutNumber: 8.23
- compound: "O=C(Nc1ccccc1-c1nnc(-c2ccccc2)o1)c1ccc(F)cc1"
  propertyMeasured: "pKi"
  readoutNumber: 8.45
- compound: "CN1C(=O)CN=C(c2ccccc2)c2cc(Cl)ccc21 [Diazepam, reference compound]"
  propertyMeasured: "pKi"
  readoutNumber: 9.00
- compound: "O=C(Nc1ccccc1-c1nnc(-c2ccccc2)o1)c1ccc(Cl)cc1"
  propertyMeasured: "pKi"
  readoutNumber: 8.35
- compound: "O=C(O)CCC(=O)Nc1ccccc1-c1nnc(-c2ccccc2)o1"
  propertyMeasured: "pKi"
  readoutNumber: 9.02
- compound: "CC(=O)Nc1ccccc1-c1nnc(-c2ccccc2)o1"
  propertyMeasured: "pKi"
  readoutNumber: 8.79
- compound: "O=C(Nc1ccccc1-c1nnc(-c2ccccc2)o1)c1ccc([N+](=O)[O-])cc1"
  propertyMeasured: "pKi"
  readoutNumber: 8.27

====

# ED50 values compiled below
Tested on: maximal electro shock-induced seizure
Assay: Maximal electro shock (MES) test
Assay type: in vivo
Settings: Mus musculus, 0.5 h; mice, 30 min after administration; 60 Hz, 50 mA, 0.2 s; HLTE; read-out: ED50 (95% CI), MES test

- inputSmiles: "CC(=O)Nc1ccccc1-c1nnc(-c2ccccc2)o1"
  ED50 (mg/kg): 186
- inputSmiles: "CCC(=O)Nc1ccccc1-c1nnc(-c2ccccc2)o1"
  ED50 (mg/kg): 118
- inputSmiles: "COc1ccc(C(=O)Nc2ccccc2-c2nnc(-c3ccccc3)o2)cc1"
  ED50 (mg/kg): 136
- inputSmiles: "O=C(Nc1ccccc1-c1nnc(-c2ccccc2)o1)c1ccc([N+](=O)[O-])cc1"
  ED50 (mg/kg): 24.2
- inputSmiles: "O=C(Nc1ccccc1-c1nnc(-c2ccccc2)o1)c1ccc(F)cc1"
  ED50 (mg/kg): 105

====

Tested on: mice
Test: Elevated plus maze test
Type: in vivo
Details: Mus musculus, percentage of time spent in open arms, read-out: ED50 (95% CI), Elevated plus maze test
As shown below, each of these compounds has a reported ED50 value.

- compound: "O=C(O)c1ccccc1C(=O)Nc1ccccc1-c1nnc(-c2ccccc2)o1"
  ED50, mg/kg: 8.71
- compound: "O=C(Nc1ccccc1-c1nnc(-c2ccccc2)o1)c1ccc(F)cc1"
  ED50, mg/kg: 13.7
- compound: "O=C(Nc1ccccc1-c1nnc(-c2ccccc2)o1)c1ccc(Cl)cc1"
  ED50, mg/kg: 11.8
- compound: "O=C(O)CCC(=O)Nc1ccccc1-c1nnc(-c2ccccc2)o1"
  ED50, mg/kg: 9.77
- compound: "CN1C(=O)CN=C(c2ccccc2)c2cc(Cl)ccc21 [Diazepam, reference compound]"
  ED50, mg/kg: 2.24
- compound: "O=C(Nc1ccccc1-c1nnc(-c2ccccc2)o1)c1ccc([N+](=O)[O-])cc1"
  ED50, mg/kg: 9.96
- compound: "O=C(Nc1ccccc1-c1nnc(-c2ccccc2)o1)c1ccccc1"
  ED50, mg/kg: 15.3
- compound: "CC(=O)Nc1ccccc1-c1nnc(-c2ccccc2)o1"
  ED50, mg/kg: 12.8
- compound: "CCC(=O)Nc1ccccc1-c1nnc(-c2ccccc2)o1"
  ED50, mg/kg: 11.8
- compound: "Cc1ccc(C(=O)Nc2ccccc2-c2nnc(-c3ccccc3)o2)cc1"
  ED50, mg/kg: 12.6
- compound: "COc1ccc(C(=O)Nc2ccccc2-c2nnc(-c3ccccc3)o2)cc1"
  ED50, mg/kg: 12.7

====

This section presents molecules with their documented melting point values.

- inputSmiles: "CC(=O)Nc1ccccc1-c1nnc(-c2ccccc2)o1"
  melting point: "155 to 157 °C"
- inputSmiles: "O=C(Nc1ccccc1-c1nnc(-c2ccccc2)o1)c1ccc(Cl)cc1"
  melting point: "195 to 197 °C"
- inputSmiles: "COc1ccc(C(=O)Nc2ccccc2-c2nnc(-c3ccccc3)o2)cc1"
  melting point: "216 to 217 °C"
- inputSmiles: "O=C(Nc1ccccc1-c1nnc(-c2ccccc2)o1)c1ccc([N+](=O)[O-])cc1"
  melting point: "195 to 197 °C"
- inputSmiles: "Cc1ccc(C(=O)Nc2ccccc2-c2nnc(-c3ccccc3)o2)cc1"
  melting point: "200 to 202 °C"
- inputSmiles: "O=C(Nc1ccccc1-c1nnc(-c2ccccc2)o1)c1ccccc1"
  melting point: "188 to 189 °C"
- inputSmiles: "CCC(=O)Nc1ccccc1-c1nnc(-c2ccccc2)o1"
  melting point: "163 to 165 °C"
- inputSmiles: "O=C(O)CCC(=O)Nc1ccccc1-c1nnc(-c2ccccc2)o1"
  melting point: "159 to 160 °C"
- inputSmiles: "O=C(O)c1ccccc1C(=O)Nc1ccccc1-c1nnc(-c2ccccc2)o1"
  melting point: "196 to 198 °C"
- inputSmiles: "O=C(Nc1ccccc1-c1nnc(-c2ccccc2)o1)c1ccc(F)cc1"
  melting point: "189 to 190 °C"

====

System: mice
Experiment: Pentobarbital induced sleep test
Details: Mus musculus, read-out: ED50 (95% CI), Pentobarbital induced Sleeping test

- compound: "O=C(Nc1ccccc1-c1nnc(-c2ccccc2)o1)c1ccccc1 [Compound 7a]"
  targetOfAssay: "mice"
  unitsLabel: "mg/kg"
  ED50: 22.7
- compound: "O=C(Nc1ccccc1-c1nnc(-c2ccccc2)o1)c1ccc(F)cc1 [Compound 7c]"
  targetOfAssay: "mice"
  unitsLabel: "mg/kg"
  ED50: 17.1
- compound: "Cc1ccc(C(=O)Nc2ccccc2-c2nnc(-c3ccccc3)o2)cc1 [Compound 7d]"
  targetOfAssay: "mice"
  unitsLabel: "mg/kg"
  ED50: 13.1
- compound: "CN1C(=O)CN=C(c2ccccc2)c2cc(Cl)ccc21 [Diazepam, reference compound]"
  targetOfAssay: "mice"
  unitsLabel: "mg/kg"
  ED50: 1.98
- compound: "O=C(O)CCC(=O)Nc1ccccc1-c1nnc(-c2ccccc2)o1 [Compound 7j]"
  targetOfAssay: "mice"
  unitsLabel: "mg/kg"
  ED50: 4.98
- compound: "O=C(O)c1ccccc1C(=O)Nc1ccccc1-c1nnc(-c2ccccc2)o1 [Compound 7i]"
  targetOfAssay: "mice"
  unitsLabel: "mg/kg"
  ED50: 4.64
- compound: "CCC(=O)Nc1ccccc1-c1nnc(-c2ccccc2)o1 [Compound 7h]"
  targetOfAssay: "mice"
  unitsLabel: "mg/kg"
  ED50: 5.28
- compound: "O=C(Nc1ccccc1-c1nnc(-c2ccccc2)o1)c1ccc([N+](=O)[O-])cc1 [Compound 7e]"
  targetOfAssay: "mice"
  unitsLabel: "mg/kg"
  ED50: 19.6
- compound: "COc1ccc(C(=O)Nc2ccccc2-c2nnc(-c3ccccc3)o2)cc1 [Compound 7f]"
  targetOfAssay: "mice"
  unitsLabel: "mg/kg"
  ED50: 9.91
- compound: "O=C(Nc1ccccc1-c1nnc(-c2ccccc2)o1)c1ccc(Cl)cc1 [Compound 7b]"
  targetOfAssay: "mice"
  unitsLabel: "mg/kg"
  ED50: 19.4
- compound: "CC(=O)Nc1ccccc1-c1nnc(-c2ccccc2)o1 [Compound 7g]"
  targetOfAssay: "mice"
  unitsLabel: "mg/kg"
  ED50: 9.45
